Ref: the DeepSol protein solubility set

# TEST PROTOCOL: soluble on expression in E. coli; label from the status in PepcDB or PDB records
PARAMETER: soluble on expression in E. coli

Example entries and their recorded answers appear below.
MSMEPTLQSILDQRSLRWIFVGGKGGVGKTTTSCSLAIQLAKVRRSVLLLSTDPAHNLSDAFSQKFGKEARLVEGFDNLYAMEIDPNGSMQDLLAGQTGDGDAGMGGVGVMQDLAYAIPGIDEAMSFAEVLKQVNSLSYETIVFDTAPTGHTLRFLQFPTVLEKALAKVSQLSGQYGSLLNGILGGSGTLPNGQTLSDVMEKLDSLRVTISEVNAQFKDERLTTFVCVCIPEFLSLYETERMIQELANYGIDTHCIVVNQLLFPKPGSDCEQCTARRRMQKKYLDQIEELYDEEFNVVKMPLLVEEVRGKERLEKFSEMLIKPFVPPEHHHHHH : soluble
MGSDKIHHHHHHMYNLGKGVQECTETSLLTALGGMERRNLSELDTTLTSDNLPVVSHDFNTWRISTLPDRLIRELHSADVKNIPVIIREVSNGEITESYTVTNDIIPFLEPLLDKVFDVNPGATFFLDGRDFEAHIITAWLSRRPKYRQRVVLLFYTFEYSSGEAFFDAVKQVSPEPDWRETVALMPVIFPQELPRLAKLIDLSDIAVEDLYEGGKIWIDSMLRQPMRVVAVHIVMARVKPEQLGLCDKPEIVRAFNADYAAVRLAYYVKDNPEVRKMRPHLKLATATRCYDFSAQLENGEKAEFSINIRTGRPMPRETDERKYIRRGYGIPGNAAAIADWVISDRSEDEMSFWEWRNKGVPRRVDHHCPHLDVIEQDGKSVP : not soluble
MGSDKIHHHHHHMLKIELLESFIAVAECGNLSKAADKICRTQSTLSLQVKKLEESVGQTLLIRDNKGVTLTESGETLLNYAYKMMQLNSQAIDELKDCQNREVIRLGVPTDFIKCYLSSCLLEFIREFTSIELVIDTDVSGNLYKRLHQGEFDVIVATHWQVPTNGELLFTRRFKWVSAVEGNAHKRKTIPMGLYPENCPIRAQVFANHRLSMRPINVLLSTPSPQALCMAVENDLVIAPIAEFRITDQMQVLDPIEHGLPILPMFNESLYLNPDTQTYATLQLINLIKANVEHKGYQLD : not soluble
MGSDKIHHHHHHVRVLAIRHVEIEDLGMMEDIFREKNWSFDYLDTPKGEKLERPLEEYSLVVLLGGYMGAYEEEKYPFLKYEFQLIEEILKKEIPFLGICLGSQMLAKVLGASVYRGKNGEEIGWYFVEKVSDNKFFREFPDRLRVFQWHGDTFDLPRRATRVFTSEKYENQGFVYGKAVGLQFHIEVGARTMKRWIEAYKDELEKKKIDPRLLLETAEREEKVLKGLLRSLLERMVES : soluble

Then this sequence:
Task: Determine its reported soluble on expression in E. coli: MIINKVKSLIKHGFNLAIDISADILLIFTETGRTYEYYKDQEAIYKRARKNRSLKDFKSLKVVVTTPNEETFLKLKNESKIIPLLMTYRNDDRSSMIKQAVTNLFANNIVKKGDIVVSILGIPKVTGGTDTISIFEVNEYPQILKYYDYISSIEKTKGKVINEVLNLCMELAVEGREGTPVGSIFVIGDSDRVLKMSSQLILNPFEGHESFIFDKQVKGTVKELSTIDGAFVIGEKGEVLCAGRYISCSGGNIELPLGLGARHHAAATISKYTGAIAITVSESGGVIRIFKNGEILSEIKPKKLSNTSEYSY
Output: not soluble
